Protocol: Plasma pharmacokinetic study in rats after oral and intravenous administration of SZ–A or purified DNJ
Format: in vivo, rat
Protocol conditions: Sprague-Dawley, po; rat plasma, SZ–A 200 mg/kg p.o., n = 5; read-out: MRT0–t
Protocol: The oral dosing solutions used for all animal studies were prepared by dissolving in water. Thirty rats weighed 250–270 g after acclimation were randomly divided into six groups of five animals each. For oral administration, rats were treated with SZ–A (40, 200, 1000 mg/kg) or purified DNJ (15 mg/kg) dissolve in water. […] F was calculated according to the formula: F (%) = (AUC oral/AUC i.v.) × (dose i.v./dose oral) × 100. […]
// values below are reported MRT last

{"columns": ["Molecule", "MRT last"],
 "data": [
  ["OC[C@H]1NC[C@H](O)[C@@H](O)[C@@H]1O [DNJ, 1-deoxynojirimycin]", "2.63 h"],
  ["OC[C@H]1NC[C@@H](O)[C@@H]1O [DAB, 1,4-dideoxy-1,4-imino-D-arabinitol]", "1.95 h"],
  ["OC[C@H]1NCC[C@@H](O)[C@@H]1O [FGM, fagomine]", "2.66 h"]
]}

---

Protocol: Plasma pharmacokinetic study in rats after oral and intravenous administration of SZ–A or purified DNJ
Type: in vivo, rat
Protocol conditions: Sprague-Dawley, po; rat plasma, SZ–A 200 mg/kg p.o., n = 5
// values below are reported AUC(0-t)
Observation type: AUC(0-t) (ng·h/mL)

{"columns": ["Compound", "Observation type", "Unit of measurement", "Reported result"],
 "data": [
  ["OC[C@H]1NC[C@@H](O)[C@@H]1O [DAB, 1,4-dideoxy-1,4-imino-D-arabinitol]", "AUC(0-t)", "ng·h/mL", 3510],
  ["OC[C@H]1NC[C@H](O)[C@@H](O)[C@@H]1O [DNJ, 1-deoxynojirimycin]", "AUC(0-t)", "ng·h/mL", 27000],
  ["OC[C@H]1NCC[C@@H](O)[C@@H]1O [FGM, fagomine]", "AUC(0-t)", "ng·h/mL", 5360]
]}

---

Protocol: Plasma pharmacokinetic study in rats after oral and intravenous administration of SZ–A or purified DNJ
Assay type: in vivo, rat
Protocol conditions: Sprague-Dawley, plasma, po; rat, SZ–A 1000 mg/kg p.o. vs SZ–A 4 mg/kg i.v.; read-out: F (oral absolute bioavailability)
Observation type: bioavailability (%)

{"columns": ["Compound", "Reported result"],
 "data": [
  ["OC[C@H]1NC[C@@H](O)[C@@H]1O [DAB, 1,4-dideoxy-1,4-imino-D-arabinitol]", 40.1],
  ["OC[C@H]1NCC[C@@H](O)[C@@H]1O [FGM, fagomine]", 29.9],
  ["OC[C@H]1NC[C@H](O)[C@@H](O)[C@@H]1O [DNJ, 1-deoxynojirimycin]", 33.3]
]}

---

Protocol: Excretion into urine, feces and bile in rats after oral SZ–A
Type: in vivo
Protocol conditions: bile, po; rat, SZ–A 40 mg/kg p.o., within 32 h; read-out: recovery in bile (% of dose)
Protocol: Five rats were kept in the metabolic cages with free access to water and food 2 h post dose. Urine was collected before dosing and at 0–4, 4–8, 8–24, 24–36, and 36–48 h, and feces was simultaneously collected before dosing and at 0–24, 24–36, and 36–48 h after oral dosing of SZ–A (40 mg/kg). Feces samples were dried and grinded into powder, then homogenized with normal saline solution (1:9, w/v). […]

{"columns": ["Smiles str", "dose excreted (%)"],
 "data": [
  ["OC[C@H]1NCC[C@@H](O)[C@@H]1O", 0.5],
  ["OC[C@H]1NC[C@@H](O)[C@@H]1O", 0.35],
  ["OC[C@H]1NC[C@H](O)[C@@H](O)[C@@H]1O", 0.29]
]}

---

Protocol: Tissue distribution in rats after oral SZ–A
Type: in vivo
Protocol conditions: Sprague-Dawley, pancreas, rat, SZ–A 40 mg/kg p.o., 0.25, 0.5 and 2 h, n = 3, read-out: tissue to plasma ratio (T/P) in the pancreas

{"columns": ["Smiles str", "Kp"],
 "data": [
  ["OC[C@H]1NCC[C@@H](O)[C@@H]1O", "0.18 to 1.13"],
  ["OC[C@H]1NC[C@H](O)[C@@H](O)[C@@H]1O", "0.06 to 0.47"],
  ["OC[C@H]1NC[C@@H](O)[C@@H]1O", "0.09 to 0.59"]
]}

---

Protocol: Plasma pharmacokinetic study in rats after oral and intravenous administration of SZ–A or purified DNJ
Format: in vivo, rat
Protocol conditions: Sprague-Dawley, po; rat plasma, SZ–A 40 mg/kg p.o., n = 5; read-out: MRT0–∞
// values below are reported MRT inf

{"columns": ["Smiles str", "MRT inf, h"],
 "data": [
  ["OC[C@H]1NCC[C@@H](O)[C@@H]1O", 1.48],
  ["OC[C@H]1NC[C@H](O)[C@@H](O)[C@@H]1O", 1.78],
  ["OC[C@H]1NC[C@@H](O)[C@@H]1O", 1.42]
]}

---

// values below are reported AUC(0-t)
Protocol: Plasma pharmacokinetic study in rats after oral and intravenous administration of SZ–A or purified DNJ
Assay type: in vivo, rat
Protocol conditions: Sprague-Dawley, po; rat plasma, SZ–A 1000 mg/kg p.o., n = 5

{"columns": ["Compound", "AUC(0-t)"],
 "data": [
  ["OC[C@H]1NC[C@@H](O)[C@@H]1O [DAB, 1,4-dideoxy-1,4-imino-D-arabinitol]", "12400 ng·h/mL"],
  ["OC[C@H]1NCC[C@@H](O)[C@@H]1O [FGM, fagomine]", "20800 ng·h/mL"],
  ["OC[C@H]1NC[C@H](O)[C@@H](O)[C@@H]1O [DNJ, 1-deoxynojirimycin]", "116000 ng·h/mL"]
]}

---

Protocol: Plasma pharmacokinetic study in rats after oral and intravenous administration of SZ–A or purified DNJ
Assay type: in vivo, rat
Protocol conditions: Sprague-Dawley, iv; rat plasma, SZ–A 4 mg/kg i.v., n = 5; read-out: MRT0–∞
Method: The oral dosing solutions used for all animal studies were prepared by dissolving in water. Thirty rats weighed 250–270 g after acclimation were randomly divided into six groups of five animals each. For oral administration, rats were treated with SZ–A (40, 200, 1000 mg/kg) or purified DNJ (15 mg/kg) dissolve in water. […] F was calculated according to the formula: F (%) = (AUC oral/AUC i.v.) × (dose i.v./dose oral) × 100. […]

{"columns": ["Smiles str", "MRT inf / min"],
 "data": [
  ["OC[C@H]1NC[C@H](O)[C@@H](O)[C@@H]1O", 49.2],
  ["OC[C@H]1NC[C@@H](O)[C@@H]1O", 12.6],
  ["OC[C@H]1NCC[C@@H](O)[C@@H]1O", 18]
]}

---

Protocol: Plasma pharmacokinetic study in rats after oral and intravenous administration of SZ–A or purified DNJ
Type: in vivo, rat
Protocol conditions: Sprague-Dawley, po; rat plasma, SZ–A 1000 mg/kg p.o., n = 5
Observation type: half-life (h)

{"columns": ["Smiles str", "Unit of measurement", "Reported result"],
 "data": [
  ["OC[C@H]1NCC[C@@H](O)[C@@H]1O", "h", 2.73],
  ["OC[C@H]1NC[C@@H](O)[C@@H]1O", "h", 2.38],
  ["OC[C@H]1NC[C@H](O)[C@@H](O)[C@@H]1O", "h", 3.52]
]}

---

Protocol: Plasma pharmacokinetic study in rats after oral and intravenous administration of SZ–A or purified DNJ
Format: in vivo, rat
Protocol conditions: Sprague-Dawley, iv; rat plasma, SZ–A 4 mg/kg i.v., n = 5; read-out: CLz (converted)
// values below are reported clearance
Observation type: clearance (mL/min/kg)

{"columns": ["Smiles str", "Unit of measurement", "Reported result"],
 "data": [
  ["OC[C@H]1NC[C@@H](O)[C@@H]1O", "mL/min/kg", 25.6],
  ["OC[C@H]1NC[C@H](O)[C@@H](O)[C@@H]1O", "mL/min/kg", 18.1],
  ["OC[C@H]1NCC[C@@H](O)[C@@H]1O", "mL/min/kg", 15.4]
]}

---

// values below are reported Cmax
Protocol: Plasma pharmacokinetic study in rats after oral and intravenous administration of SZ–A or purified DNJ
Assay type: in vivo, rat
Protocol conditions: Sprague-Dawley, po; rat plasma, SZ–A 40 mg/kg p.o., n = 5
Observation type: Cmax (ng/mL)

{"columns": ["Compound", "Unit of measurement", "Reported result"],
 "data": [
  ["OC[C@H]1NC[C@@H](O)[C@@H]1O [DAB, 1,4-dideoxy-1,4-imino-D-arabinitol]", "ng/mL", 708],
  ["OC[C@H]1NC[C@H](O)[C@@H](O)[C@@H]1O [DNJ, 1-deoxynojirimycin]", "ng/mL", 6370],
  ["OC[C@H]1NCC[C@@H](O)[C@@H]1O [FGM, fagomine]", "ng/mL", 1490]
]}
